Measured values drawn from the supplement of paper PMC10567573 for this set.

B1: RSPH3 (parent)
chain: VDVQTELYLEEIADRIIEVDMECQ

Variants of: B1
assay info: protein stability index of a GFP-peptide fusion (GPS, HEK-293T) (PSI 1-6); higher = more stable;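 further: lentivirally expressed fusions sorted by FACS into six bins by GFP to DsRed ratio, PSI derived from sequencing read proportions per bin multiplied by bin number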
condition set: c terminus: a fixed tail appended
# binarize protein stability index: threshold 2 inclusive, high side true, low side false

Q: // inclusive: protein stability index at least 2? input: R15M
A: true

Q: Thanks! And I16M ?
A: true

Q: Try the variant Y8W
A: true

Q: // same read-out, input: Y8S
A: true

Q: Then M21A ?
A: true

Q: Please answer likewise for R15E
A: true

Q: Now consider V1S and answer again.
A: true

Q: Here is the next variant: Q4V
A: true

Q: And what about the variant M21N ?
A: true

Q: Another: L9S
A: true

Q: What do you have for D2Y ?
A: true

Q: Next record, please: E22N
A: true

Q: // same read-out, input: V1L
A: false

Q: Also need M21Y , thanks.
A: false

Q: Field entry: C23Y
A: true

Q: Query C23P next
A: true

Q: Note, next up: D14Q
A: true

Q: // same read-out, input: I12D
A: true

Q: Also check E22L
A: true

Q: Another variant to check: E6H
A: true

Q: Then this variant: D14K
A: false

Q: Another variant to look at: I16Q
A: true

Q: Query R15N next
A: true

Q: Also I12W ?
A: false

Q: Can you check L7G next?
A: true

Q: Let us now turn to Q4M
A: true

Q: Similarly, Y8C ?
A: true

Q: Ok, now D14H
A: false

Q: Same read-out for D14A ?
A: false

Q: Next: I17K
A: true

Q: Follow-up entry: I12V
A: true

Q: Another variant to look at: E6G
A: true

Q: Entry to check: D20R
A: false

Q: How about this variant: L9D
A: true

Q: Same for V19P
A: true

Q: What do we get for V1A ?
A: true

Q: E10G , same question.
A: true

Q: Another variant to check: V1K
A: true

Q: Would you kindly repeat that for I12Y ?
A: true

Q: Do the same for M21E please
A: true

Q: Try this variant next: E18G
A: true

Q: Same again, this time with Q24H
A: true

Q: Now this one: E6M
A: true

Q: Do the same for A13Y please
A: false

Q: And then L7M , what is it?
A: false

Q: For L9P then?
A: true

Q: Subsequent entry: R15P
A: true

Q: Same question for E18M please.
A: false

Q: And what about the variant E22S ?
A: true

Q: Consider next the variant V19M in the same way.
A: true

Q: Please give the result for Y8H too.
A: true

Q: Next: E11D
A: false

Q: Same question for I16F please.
A: false

Q: Another: Y8I
A: false

Q: Now try C23K .
A: true

Q: Quick one: M21R
A: true

Q: # iterate: E18D
A: true

Q: V1W , same question.
A: true

Q: Same again, this time with A13D
A: true

Q: Now try D14W .
A: true

Q: Item: T5C
A: false

Q: How about this variant: R15H
A: true

Q: What about A13K ?
A: true

Q: Another variant to check: D20N
A: false

Q: Another variant: Y8A
A: true

Q: Also C23F ?
A: true

Q: Subsequent entry: C23A
A: true

Q: Would you mind doing R15G as well?
A: true

Q: Try this variant next: V3Q
A: true

Q: // query: Q4F
A: true

Q: E22M , same question.
A: true

Q: And what about the variant V19H ?
A: true

Q: Check I12F too.
A: false

Q: Do the same for E18F please
A: true

Q: Entry E22P please
A: true

Q: Thanks! And T5M ?
A: true

Q: Further, for E6T ?
A: false

Q: Next record, please: L7C
A: true

Q: Another variant to check: V3N
A: true

Q: How about D2G ?
A: false

Q: Could you do the same for V3D , please?
A: true

Q: Further, for D2E ?
A: true

Q: // repeat for Y8T and report
A: true

Q: # iterate: E11G
A: true

Q: Let us now turn to I17Q
A: true

Q: Another variant to check: E22G
A: true

Q: Try T5Y next.
A: true

Q: Try M21L next.
A: false
